As a worked illustration, we turn to IC50 data collected for IRAK4 (Homo sapiens (Human), UniProt Q9NWZ3).
Give bare numbers, in nM.

{"molecule": "CC[C@@H]1CC(=O)N[C@@H]1COc1csc2cc(C(N)=O)c(OC)nc12", "IC50 / nM": 1}

Parameters: items (list). Returns: IC50 for each item.
1. COc1nc2c(OC[C@@H]3CC(C)C(=O)N3)csc2cc1C(N)=O (single isomer, unassigned)
2. CC[C@@H]1[C@H](F)C(=O)N[C@@H]1COc1csc2cc(C(N)=O)c(OC3CC3)nc12
3. CC[C@@H]1[C@H](F)C(=O)N[C@@H]1COc1c(C)sc2cc(C(N)=O)c(OC)nc12
4. COc1nc2c(OC[C@H]3NC(=O)C[C@H]3C)csc2cc1C(N)=O

Resp:
[36.2, 20.2, 33.6, 6]

Each molecule below has a recorded value; state its IC50.
1. COc1nc2c(OC[C@@H]3CCC(=O)N3)c(C)sc2cc1C(N)=O
2. CC[C@@H]1[C@H](F)C(=O)N[C@@H]1COc1csc2cc(C(N)=O)c(OC)nc12
3. COc1nc2c(OCC3COCC(=O)N3)csc2cc1C(N)=O (racemic)
4. CC[C@@H]1[C@H](F)C(=O)N[C@@H]1COc1csc2cc(C(N)=O)c(OC(C)C)nc12

Resp:
128
1.2
615
1.4

###

Provide the reported pEC50 of each item.
tested on: IL-6 levels in human whole blood stimulated with a TLR2 agonist; test: IRAK4 Whole Blood Assay (TLR2 agonist lipoteichoic acid-stimulated IL-6); format: cell-based; details: 10 μg/mL lipoteichoic acid, 5 hours, IL-6 readout
Give bare numbers, as −log10 of the molar value.

{"smilesData": "CC[C@@H]1[C@H](F)C(=O)N[C@@H]1COc1csc2cc(C(N)=O)c(OC)cc12", "pEC50": 6.82}

For each of the compounds below, note its pEC50.
1. COc1nc2c(OC[C@H]3NC(=O)[C@H](F)[C@H]3C3CC3)csc2cc1C(N)=O
2. COc1nc2c(OC[C@@H]3CCC(=O)N3)csc2cc1C(N)=O

Resp:
1. 6.02
2. 5.70

###

test: Caco-2 Permeability Assay; format: in vitro ADME; conditions: human, 3 μM compound, 2 hours at 37° C., direction not given
reportedProperty: Papp at 2 h, 3 µM (×10⁻⁶ cm/s)
Numbers only, in ×10⁻⁶ cm/s.

A selection of reference data follows.
{"smilesData": "CC[C@H]1[C@@H](COc2csc3cc(C(N)=O)c(OC)nc23)NC(=O)[C@@H]1F", "reportedProperty": "Papp at 2 h, 3 µM", "unit": "×10⁻⁶ cm/s", "reportedMeasurement": 4.2}
{"smilesData": "COc1nc2c(OC[C@H]3NC(=O)C(F)(F)[C@H]3C)csc2cc1C(N)=O", "reportedProperty": "Papp at 2 h, 3 µM", "unit": "×10⁻⁶ cm/s", "reportedMeasurement": 13.6}

Turning now to a further record.
Req: For the compound COc1nc2c(OC[C@H]3NC(=O)[C@H](F)[C@H]3C)csc2cc1C(N)=O , report Papp at 2 h, 3 µM.
Resp: 5.9

###

Provide the reported pEC50 of each item.
test system: IL-6 levels in human whole blood stimulated with a TLR2 agonist; test: IRAK4 Whole Blood Assay (TLR2 agonist lipoteichoic acid-stimulated IL-6); assay type: cell-based; details: 10 μg/mL lipoteichoic acid, 5 hours, IL-6 readout
Numbers only, as −log10 of the molar value.

Sample records with pEC50:
{"smilesData": "COc1nc2c(OC[C@H]3NC(=O)C(F)(F)[C@H]3C)csc2cc1C(N)=O", "pEC50": 6.90}
{"smilesData": "CC[C@@H]1CC(=O)N[C@@H]1COc1csc2cc(C(N)=O)c(OC)cc12", "pEC50": 6.44}
{"smilesData": "COc1nc2c(OC[C@H]3NC(=O)C[C@H]3C(F)F)csc2cc1C(N)=O", "pEC50": 6.58}
{"smilesData": "CC[C@H]1[C@@H](COc2csc3cc(C(N)=O)c(OC)nc23)NC(=O)C1(F)F", "pEC50": 7.24}
{"smilesData": "COc1nc2c(OC[C@H]3NC(=O)[C@H](F)[C@H]3C)csc2cc1C(N)=O", "pEC50": 7.24}
{"smilesData": "CC[C@@H]1[C@H](F)C(=O)N[C@@H]1COc1csc2cc(C(N)=O)c(OC)nc12", "pEC50": 6.69}
{"smilesData": "CC[C@@H]1[C@H](F)C(=O)N[C@@H]1COc1csc2cc(C(N)=O)c(OC(C)C)nc12", "pEC50": 6.72}
{"smilesData": "CC[C@@H]1CC(=O)N[C@@H]1COc1csc2cc(C(N)=O)c(OC3CC3)nc12", "pEC50": 6.33}

Req: State pEC50 on IL-6 levels in human whole blood stimulated with a TLR2 agonist. Entry: CC[C@H]1[C@@H](COc2csc3cc(C(N)=O)c(OC)nc23)NC(=O)[C@@H]1F
Resp: 7.04
